Values compiled from ChEMBL document CHEMBL5058577.

Can you tell me Population Hoechst High Intensity Objects (%) for the items I'm about to list?
Test system: HEK-293T
protocol.notes: Multiplex assay against HEK293T
Format: toxicity, cell-based
reported.conditions: human, 48 h, 1 µM, compound concentration 1 uM, replicate 1
State just the number; it will be interpreted in %.

Fill in the recorded Population Hoechst High Intensity Objects (%) for this molecule, with HEK-293T as test system: COc1ccc2c(c1OCc1ccccc1)C[C@@H](C(=O)O)N(C(=O)C(c1ccccc1)c1ccccc1)C2
2

// same read-out, input: COc1cc(C(=O)N2CC[C@@H](O)[C@@H](N)C2)cc2nc(-c3cc4ccccc4n3CC3CC3)n(C)c12.Cl
5

// same read-out, input: Nc1nc(CC(=O)Nc2ccc(CCNC[C@H](O)c3ccccc3)cc2)cs1
1

// same read-out, input: C[C@H](NC(=O)CNC(=O)c1cccc(Cl)c1)c1ccccc1
3

// same read-out, input: CSc1nc(NC2CCCC2)c([N+](=O)[O-])c(NC2CCCC2)n1
3

// same read-out, input: COc1cc(OC2CCN(C(C)=O)CC2)ccc1C(=O)N1CCC(N2C(=O)OCc3ccccc32)CC1
3

// same read-out, input: CN1CCN(c2ccc(Nc3c4ccccc4nc4ccccc34)cc2)CC1.Cl.Cl.O
3

// same read-out, input: CC(C)(C)c1ccc(CSc2cnn(C(C)(C)C)c(=O)c2Cl)cc1
5

// same read-out, input: Cl.Cl.OCCOCCN1CCN(C(c2ccccc2)c2ccc(Cl)cc2)CC1 (configuration not stated) [HYDROXYZINE HYDROCHLORIDE]
1

// same read-out, input: Cc1nn(C)c2nc(NNC(=O)Nc3cc(Cl)nc(Cl)c3)cc(C(C)C)c12
3

// same read-out, input: C=CCN1C[C@H](C(=O)N(CCCN(C)C)C(=O)NCC)C[C@@H]2c3cccc4[nH]cc(c34)C[C@H]21
4

// same read-out, input: CCCCCCNC(=O)Nc1ccc(S(=O)(=O)Nc2ccc(CCNC[C@H](O)COc3ccc(O)cc3)cc2)cc1
3

// same read-out, input: O=C(O)CCC/C=C\CC1C(O)CC(O)C1/C=C/C(O)COc1cccc(Cl)c1 (configuration not stated)
4

// same read-out, input: COc1cc(Nc2ncc3c(n2)-c2ccc(Cl)cc2C(c2c(F)cccc2OC)=NC3)ccc1C(=O)O
3

// same read-out, input: Cc1sc2c(c1C)C(c1ccc(Cl)cc1)=N[C@H](CC(=O)OC(C)(C)C)c1nnc(C)n1-2
3

// same read-out, input: CN1CCN2c3ccccc3Cc3ccccc3C2C1.Cl (configuration not stated) [MIANSERIN HYDROCHLORIDE]
1

// same read-out, input: S=C(NCCCc1c[nH]cn1)NCCCN(Cc1ccc(Cl)c(Cl)c1)c1ccc(Br)cn1
36
